Catalogue of Km readings, one per entry.
Substrate: N[C@@H](CSSC[C@H](N)C(=O)O)C(=O)O
Run description: cells, lysate or membranes
Format: cell-based, Homo sapiens
Protocol conditions: pH 5.5 (MES), 2% glucose, 30 °C, vps1Δvps17Δ yeast, labelled compound
// note: answer is a bare numeric in µM

{"Protein": "CTNS WT (human cystinosin with GYDQL motif) (Homo sapiens) (protein, full-length, untagged, plasmid p416TEF (TEF-CTNS, ABE 3006), expressed in S. cerevisiae vps1Δvps17Δ; uptake across plasma membrane) SVSLTVPPVVKLENGSSTNVSLTLRPPLNATLVITFEITFRSKNITILELPDEVVVPPGVTNSSFQVTSQNVGQLTVYLHGNHSNQTGPRIRFLVIRSSAISIINQVIGWIYFVAWSISFYPQVIMNWRRKSVIGLSFDFVALNLTGFVAYSVFNIGLLWVPYIKEQFLLKYPNGVNPVNSNDVFFSLHAVVLTLIIIVQCCLYERGGQRVSWPAIGFLVLAWLFAFVTMIVAAVGVTTWLQFLFCFSYIKLAVTLVKYFPQAYMNFYYKSTEGWSIGNVLLDFTGGSFSLLQMFLQSYNNDQWTLIFGDPTKFGLGVFSIVFDVVFFIQHFCLYRKRPGYDQLN", "Km [µM]": 400}

--- query ---
Enquiry: Please give the measured Km for this protein: CTNS-Δgydql (Homo sapiens; G197R) (protein, lacks C-terminal GYDQLN (lysosomal targeting motif; Y363 and L366), untagged, p416TEF (ABE 3513), expressed in S. cerevisiae vps1Δvps17Δ (ABC 5017)) SVSLTVPPVVKLENGSSTNVSLTLRPPLNATLVITFEITFRSKNITILELPDEVVVPPGVTNSSFQVTSQNVGQLTVYLHGNHSNQTGPRIRFLVIRSSAISIINQVIGWIYFVAWSISFYPQVIMNWRRKSVIGLSFDFVALNLTGFVAYSVFNIGLLWVPYIKEQFLLKYPNRVNPVNSNDVFFSLHAVVLTLIIIVQCCLYERGGQRVSWPAIGFLVLAWLFAFVTMIVAAVGVTTWLQFLFCFSYIKLAVTLVKYFPQAYMNFYYKSTEGWSIGNVLLDFTGGSFSLLQMFLQSYNNDQWTLIFGDPTKFGLGVFSIVFDVVFFIQHFCLYRKRP
Return: 97.3
